Recorded values, source paper PMC6112376.

- System: Caenorhabditis elegans (Bristol N2)
- METHOD_SUMMARY: C. elegans larval development and growth assay
- EXPERIMENTAL_CONTEXT: 5 µM
ENDPOINT_NAME: EXT: mean difference in nematode size relative to plate controls
Answers are plain numbers.

Would you please look over these solved cases?
> print(dat)
                                   compound  numeric.value
1  O=C1c2ccccc2C(=O)C1C(=O)C(c1ccccc1)c1ccc(Cl)cc1 (centres unmarked)         0.7901
2  O=C(O)c1cc(O)c2c(c1)C(=O)c1cccc(O)c1C2=O        0.06956
3                   O=C(Nc1ccccc1)Nc1ccccc1       -0.06608
4  NNc1nc(-c2ccc(N)cc2)cs1 [2-Hydrazino-4-(4-aminophenyl) thiazole]       -0.00605

Consider the additional compound presented here.
Report measured EXT: mean difference in nematode size relative to plate controls; entry is `O=C(Nc1ccc(Cl)cc1)Nc1ccc(Cl)c(Cl)c1`
1.268
